# subject of test: T1, human TL1A extracellular domain with N-terminal HIS and FLAG tag (human, UniProt O95150 72-251)
# T1 construct: the whole entry is named; also called TNFSF15
# T1 sequence: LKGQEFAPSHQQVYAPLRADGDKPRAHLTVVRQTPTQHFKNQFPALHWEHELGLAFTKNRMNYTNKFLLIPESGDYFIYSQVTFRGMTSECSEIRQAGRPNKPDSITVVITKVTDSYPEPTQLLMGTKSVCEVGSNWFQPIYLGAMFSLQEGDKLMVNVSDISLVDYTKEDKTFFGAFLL
# protocol summary: SPR Run 7, antibody on Protein A, TL1A 5 ug/mL, timepoint 220
parameter: TL1A Binding Level (Late) (RU)
One number for each entry, in RU.

Provide the reported TL1A Binding Level (Late) of each entry below, same order.
1. 320-581 (antibody, human IgG1, name in Kabat numbering, V domains shown, full-length human IgG1, lambda) VH: QVQLVQSGAEVKKPGASVKVSCKASGYTFTSYDINWVRQAPGQGLEWMGWLNPNSGNTGLAQKFQGRVTMTADRSTSTAYMELSSLRSEDTAVYYCAREVPETAAFEYWGQGTLVTVSS VL: QSVLTQPPSVSGAPGQRVTISCTSSSSDIGAGLGVHWYQQLPGTAPKLLIEGYYNRPSGVPDRFSGSKSGTSASLTITGLLPEDEGDYYCQSYDGTLSALFGGGTKLTVLG
2. 320-492 (antibody, human IgG1, name in Kabat numbering, V domains shown, full-length human IgG1, lambda) VH: QVQLVQSGAEVKKPGASVKVSCKASGYTFTSYDINWVRQAPGQGLEWMGWQNPNSGNTGYAQKFQGRVTMTADRSTSTAYMELSSLRSEDTAVYYCAREVPETAAFEYWGQGTLVTVSS VL: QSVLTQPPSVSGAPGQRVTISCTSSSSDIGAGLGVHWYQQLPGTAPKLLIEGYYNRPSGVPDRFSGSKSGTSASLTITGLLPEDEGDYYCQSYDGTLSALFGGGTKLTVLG

1: 65; 2: 82

Values from patent US20170081400A1
